System Name: T1, human calcitonin receptor (human, UniProt P30988 25-474)
T1 sequence (looked up): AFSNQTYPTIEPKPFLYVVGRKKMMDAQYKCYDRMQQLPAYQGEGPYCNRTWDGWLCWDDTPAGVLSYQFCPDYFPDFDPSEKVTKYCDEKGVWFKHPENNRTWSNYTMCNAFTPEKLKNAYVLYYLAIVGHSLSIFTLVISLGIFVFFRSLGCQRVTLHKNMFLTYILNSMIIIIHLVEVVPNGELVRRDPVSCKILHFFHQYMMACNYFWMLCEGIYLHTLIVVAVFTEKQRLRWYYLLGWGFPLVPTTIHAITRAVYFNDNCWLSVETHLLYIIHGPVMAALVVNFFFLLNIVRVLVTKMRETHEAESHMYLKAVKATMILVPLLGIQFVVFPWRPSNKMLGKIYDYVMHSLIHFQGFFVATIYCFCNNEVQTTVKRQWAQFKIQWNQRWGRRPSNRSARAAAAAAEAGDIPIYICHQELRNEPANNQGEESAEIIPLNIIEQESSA
Test: cell-based or functional assay
Starred links: 1 amine or outer side, 2 acyl side, 3 side chain; linkers in the order of their positions; H or OH if unused. Positions of bridges follow the written chain, without caps; N, C: chain ends. Non-standard residues stand in square brackets, D forms with d. Groups on a side chain read outwards from the residue. Primed or numbered codes have the meaning given here. No end group written: not given here. *: point of attachment. dpeg″ = —[CO(CH2)O(CH2)2O(CH2)NH]— spacer unit, O=C(COCCOCN[*:1])[*:2]; C20 diacid = O=C(O)CCCCCCCCCCCCCCCCCCC(=O)*; C18 diacid = O=C(O)CCCCCCCCCCCCCCCCC(=O)*; γGlu = O=C(O)[C@H](CCC(=O)[*:2])N[*:1]
Quantity Measured: pEC50 (cAMP accumulation), 0.1% HSA (pEC50)
Give a bare numeral; the unit pEC50 is implied.

Example entries begin here.
Binder | pEC50 (cAMP accumulation), 0.1% HSA / pEC50
SCNTSTCATQRLANEKHKSSNNFGPILPPTKVGSETY (L-Lys 16 acylated: K*(γGlu-dpeg-dpeg-(γGlu)4-CO(CH2)14CH3); disulfide bridge Cys2-Cys7; C-terminal amide) [Compound A5] | 9.5
K([γGlu-γGlu-dpeg″-dpeg″-γGlu-C20 diacid])CNTSTCATQRLANELHKSSNNFGPILPPTKVGSETY-NH2 (disulfide 2-7) [Compound A112] | 8.5
SCNTSTCATQRLAN[dK]([γGlu-γGlu-dpeg″-γGlu-C20 diacid])LHKSSNNFGPILPPTKVGSETY-NH2 (disulfide 2-7) [Compound A100] | 8.1
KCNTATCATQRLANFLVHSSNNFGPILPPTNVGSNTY-NH2 (disulfide 2-7; ends not checked) [Pramlintide] | 11.2

Let us move to another entry and its pEC50 (cAMP accumulation), 0.1% HSA.
Query: # return recorded pEC50 (cAMP accumulation), 0.1% HSA for input K([dpeg″-dpeg″-γGlu-C18 diacid])CNTSTCATQRLANELHKSSNNFGPILPPTKVGSETY-NH2 (disulfide 2-7) [Compound A113]
Result: 9.7
